# Test system: 996289-038-R-J1-PDC spheroid viability;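 also: spheroids exposed to compounds for seven days before viability read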
# test: Anticancer human tumor 996289-038-R-J1-PDC patient-derived colon adenocarcinoma cell line growth inhibition [PI3K]
# assay.context: curve of first compound; second compound 0.0316 µM; spheroids with HUVEC and MSC
pIC50: −log10 of the molar value.
metric.name: pIC50

Observe how each entry below is paired with its result.
{"molecule": "CCCS(=O)(=O)Nc1ccc(F)c(C(=O)c2c[nH]c3ncc(-c4ccc(Cl)cc4)cc23)c1F + CC(Nc1ccc2c(c1)OCCn1cc(N3C(=O)OCC3C(F)F)nc1-2)C(N)=O", "pIC50": 5.24}
{"molecule": "CCCS(=O)(=O)Nc1ccc(F)c(C(=O)c2c[nH]c3ncc(-c4ccc(Cl)cc4)cc23)c1F + CC(Nc1ncnc2nc[nH]c12)c1cc2cccc(Cl)c2c(=O)n1-c1ccccc1", "pIC50": 5.19}

A. CC1(C)CCC(CN2CCN(c3ccc(C(=O)NS(=O)(=O)c4ccc(NCC5CCOCC5)c([N+](=O)[O-])c4)c(Oc4cnc5[nH]ccc5c4)c3)CC2)=C(c2ccc(Cl)cc2)C1 + CC(Nc1ccc2c(c1)OCCn1cc(N3C(=O)OCC3C(F)F)nc1-2)C(N)=O
B. CC(C)n1nc(-c2ccc3oc(N)nc3c2)c2c(N)ncnc21 + CC(Nc1ncnc2nc[nH]c12)c1cc2cccc(Cl)c2c(=O)n1-c1ccccc1
C. Cn1cnc2c(F)c(Nc3ccc(Br)cc3Cl)c(C(=O)NOCCO)cc21 + CC(Nc1ccc2c(c1)OCCn1cc(N3C(=O)OCC3C(F)F)nc1-2)C(N)=O
Ask: # ascending order, key=pIC50 Note for the reader: the ranking is given by listing the labels in the order requested.
Reply: A, C, B

The reported numbers originate from PubChem BioAssay AID1963965.
